Reported Kd by item:
Target: mouse Δ1–24-L-PGDS (lipocalin type prostaglandin D synthase) (Mus musculus, UniProt O09114, C65A)
Experiment: surface plasmon resonance

{"columns": ["smilesEntry", "Kd [µM]"],
 "data": [
  ["CCCCC[C@H](O)/C=C/[C@H]1[C@@H]2CO[C@@H](C2)[C@@H]1C/C=C\\CCCC(=O)O", 20.2],
  ["CCCCC[C@H](O)/C=C/[C@@H]1[C@@H](C/C=C\\CCCC(=O)O)[C@H]2CO[C@@H]1C2", 22.1]
]}
